Tested on: HL-60
protocol: NCI tumour cell line growth inhibition, 48 h
The source made the active and inactive calls. Rule as the data show it: active = GI50 up to about 1.1 µM and inactive = higher.
# output must be one of Y (active), N (inactive)

Example results:
[
  {
    "compound": "S=C(Nc1ccccc1)N1N=C2c3ccccc3CC[C@H]2[C@@H]1c1ccccc1",
    "discreteLabel": "Y"
  },
  {
    "compound": "C[C@@H]1C[C@@H](O)[C@]2(O)O[C@@H]3C[C@@]4(C=O)[C@@H](CC[C@@H]5[C@@H]4CC[C@]4(C)[C@@H](C6=CC(=O)OC6)CC[C@]54O)C[C@H]3O[C@@H]2O1",
    "discreteLabel": "Y"
  },
  {
    "compound": "CC1=NN(c2cccc(Cl)c2)C2(SCC(=O)N2c2nc3ccccc3s2)/C1=C\\c1ccccc1 (centres undefined)",
    "discreteLabel": "N"
  }
]

Inquiry: GET /call?item= O=C1CC(c2cccc([N+](=O)[O-])c2)C2(C(=O)NC(=S)NC2=O)C(c2cccc([N+](=O)[O-])c2)C1 (centres undefined) returns the recorded outcome of this test.
Reply text: N

Inquiry: GET /call?item= CC1(C)C2CC(=O)C1(C)C(O)C2Br (centres undefined) returns the recorded outcome of this test.
Reply text: N

Inquiry: GET /call?item= COc1ccc(-c2cc(=O)c3ccc(O)cc3o2)c(OC)c1OC returns the recorded outcome of this test.
Reply text: N

Inquiry: GET /call?item= CC1=C(C(=O)OCCc2ccc([N+](=O)[O-])cc2)C(c2ccccc2C(F)(F)F)C(C(=O)OC(C)C)=C(C)N1 (centres undefined) returns the recorded outcome of this test.
Reply text: N

Inquiry: GET /call?item= NC(=O)N/N=C1/CCCC/C1=C\c1ccccc1 returns the recorded outcome of this test.
Reply text: N

Inquiry: GET /call?item= O=c1[nH]c(=O)n(C2CC(O)C(CO)O2)cc1/C=C/Br (centres undefined) returns the recorded outcome of this test.
Reply text: N

====

System: MDA-N
protocol: NCI tumour cell line growth inhibition, 48 h
The source made the active and inactive calls. Rule as the data show it: active = GI50 up to about 1.1 µM and inactive = higher.
endpointLabel: GI50

For orientation, consider the following solved cases.
[
  {
    "smilesString": "O=C1/C(=C/c2ccccc2[N+](=O)[O-])N=C(c2ccccc2)N1c1nc2ccccc2s1",
    "GI50": "26.1 µM (inactive)"
  },
  {
    "smilesString": "Cc1cc(C)c2c(SCc3ccc(Cl)cc3Cl)nc(N)nc2n1",
    "GI50": "> 100 µM (inactive)"
  },
  {
    "smilesString": "C[N+](C)(C)CCC(=O)N1C/C(=C\\c2ccccc2)C(=O)/C(=C/c2ccccc2)C1",
    "GI50": "1.9 µM (inactive)"
  }
]

From here, focus on the item given below.
Inquiry: So what does the record say about GI50 for C=CCCCCCCC#CCCCCCCCCCC[C@@H]1C(=O)O[C@H](C)[C@@H]1O.CCCCCCCCC#CCCCCCCCCCC[C@@H]1C(=O)O[C@H](C)[C@@H]1O ?
Reply text: 23.2 µM (inactive)

====

Tested on: SW-620
protocol: NCI tumour cell line growth inhibition, 48 h
The source made the active and inactive calls. Cut-off read from the data, not from the text of the source: active = GI50 up to about 1.1 µM and inactive = higher.
# output must be one of active, inactive

[
  {
    "compound": "C=C1CCC2(C(C)=O)COC1(C)O2 (stereo unspecified)",
    "experimentalSystem": "SW-620",
    "discreteLabel": "inactive"
  },
  {
    "compound": "Cc1cc(OP2(=O)NCc3ncccc3O2)ccc1Cl (stereo unspecified)",
    "experimentalSystem": "SW-620",
    "discreteLabel": "inactive"
  },
  {
    "compound": "COC(=O)CC[C@@H](C)[C@H]1CC[C@H]2[C@@H]3CC[C@@H]4C[C@H](O)CC[C@]4(C)[C@H]3CC[C@]12C",
    "experimentalSystem": "SW-620",
    "discreteLabel": "inactive"
  },
  {
    "compound": "O=C(Nc1c(O)[nH]c(=S)[nH]c1=O)c1ccccn1",
    "experimentalSystem": "SW-620",
    "discreteLabel": "inactive"
  },
  {
    "compound": "COc1nc(NC2OC(COC(C)=O)C(OC(C)=O)C(OC(C)=O)C2OC(C)=O)c(/N=C(\\C)C(C)=O)c(=O)n1C (stereo unspecified)",
    "experimentalSystem": "SW-620",
    "discreteLabel": "inactive"
  },
  {
    "compound": "Fc1ccc(/N=C/C=C/Nc2ccc(F)cc2)cc1",
    "experimentalSystem": "SW-620",
    "discreteLabel": "inactive"
  },
  {
    "compound": "COc1c(CC(C)=O)c2ccccc2n1C(C)=O",
    "experimentalSystem": "SW-620",
    "discreteLabel": "inactive"
  },
  {
    "compound": "Cc1cc2c(C(C)C)c(O)c(O)c(/C=N/c3cc(C(F)(F)F)ccc3Cl)c2c(O)c1-c1c(C)cc2c(C(C)C)c(O)c(O)c(/C=N/c3cc(C(F)(F)F)ccc3Cl)c2c1O",
    "experimentalSystem": "SW-620",
    "discreteLabel": "inactive"
  },
  {
    "compound": "CCCC(=O)NC(Nc1cc(C)ccn1)(C(=O)OCC)C(F)(F)F (stereo unspecified)",
    "experimentalSystem": "SW-620",
    "discreteLabel": "inactive"
  },
  {
    "compound": "O=S(=O)(O)c1ccc(O)c2ncc(Cl)cc12",
    "experimentalSystem": "SW-620",
    "discreteLabel": "inactive"
  }
]

Inquiry: GET /call?item= O=c1[nH][nH]c(=O)c2c1ccc1oc3ccccc3c12 returns the recorded outcome of this test.
Reply text: inactive

Inquiry: GET /call?item= CC1=NN(c2ccccc2)C(=O)/C1=C\c1ccc([N+](=O)[O-])cc1 returns the recorded outcome of this test.
Reply text: inactive

====

Tested on: Malme-3M
protocol: NCI tumour cell line growth inhibition, 48 h
The source made the active and inactive calls. Cut-off read from the data, not from the text of the source: active = GI50 up to about 1.1 µM and inactive = higher.
endpointLabel: GI50

For orientation, consider the following solved cases.
[
  {
    "molecule": "N=C(N)N/N=C(/c1ccccc1)c1ccc(O)cc1O",
    "GI50": "22.6 µM (inactive)"
  },
  {
    "molecule": "CC[C@]12C=CCN3CC[C@@]4(c5cc(N=O)c(OC)cc5N(C)[C@H]4[C@@](O)(C(=O)NC(Cc4c[nH]c5ccccc45)C(=O)OC)[C@@H]1O)[C@@H]32 (stereo not given in full)",
    "GI50": "18.6 µM (inactive)"
  },
  {
    "molecule": "CCOc1cc(NC(C)=O)ccc1C(=O)NN1C(=O)CSC1c1ccccc1 (stereo not given)",
    "GI50": "86.3 µM (inactive)"
  },
  {
    "molecule": "Fc1ccc(/N=C/C=C/Nc2ccc(F)cc2)cc1",
    "GI50": "16.4 µM (inactive)"
  }
]

From here, focus on the item given below.
Inquiry: So what does the record say about GI50 for O=C1[C@@H]2C(c3ccc(Cl)cc3Cl)=NO[C@@H]2C(=O)N1c1ccc(Cc2ccc(N3C(=O)[C@H]4C(c5ccc(Cl)cc5Cl)=NO[C@H]4C3=O)cc2)cc1 ?
Reply text: 84.3 µM (inactive)

====

# GI50 per record follows
Tested on: HCC 2998
protocol: NCI tumour cell line growth inhibition, 48 h
Calls of active or inactive are those of the source. Rule as the data show it: active = GI50 up to about 1.1 µM and inactive = higher.

For orientation, consider the following solved cases.
[
  {
    "molecule": "N#CCCN(CCC#N)c1ccc(C(/N=N/c2ccc(Cl)cc2)=N\\c2ccccc2)cc1",
    "GI50": "6.55 µM (inactive)"
  },
  {
    "molecule": "CC(=O)Oc1cc2c(cc1OCC(F)(F)F)[C@H]1CC[C@]3(C)[C@@H](OC(C)=O)CC[C@H]3[C@@H]1CC2=O",
    "GI50": "16.8 µM (inactive)"
  },
  {
    "molecule": "O=C(NC(CO)CO)c1ccc2cc(C(=O)N3CC(CCl)c4ccc([N+](=O)[O-])cc43)[nH]c2c1 (centres undefined)",
    "GI50": "> 100 µM (inactive)"
  },
  {
    "molecule": "COCCOCOC(C)(C)[C@H](CCO)O[Si](c1ccccc1)(c1ccccc1)C(C)(C)C",
    "GI50": "4.68 µM (inactive)"
  },
  {
    "molecule": "Cc1cc(N)ccc1C=O",
    "GI50": "> 100 µM (inactive)"
  }
]

Inquiry: Hello, I am looking for reported GI50 with HCC 2998 for COC1C2c3ccccc3C(C#N)(Cc3ccc4c(c32)OCO4)N1C(=O)c1ccccc1 (centres undefined) . Could you help?
Reply text: 37.9 µM (inactive)

Inquiry: Hello, I am looking for reported GI50 with HCC 2998 for COC1(OC)CCc2c(sc3ncnc(Nc4cccc(Br)c4)c23)C1 . Could you help?
Reply text: > 100 µM (inactive)

Inquiry: Hello, I am looking for reported GI50 with HCC 2998 for Cc1c(NC(=S)Nc2ccc([N+](=O)[O-])cc2)c(=O)n(-c2ccccc2)n1C . Could you help?
Reply text: > 100 µM (inactive)

Inquiry: Hello, I am looking for reported GI50 with HCC 2998 for c1csc(-c2nnc(C34CC5CC(CC(C5)C3)C4)o2)c1 . Could you help?
Reply text: 35.4 µM (inactive)
